pIC50: −log10 of the molar value.
Record: compiled pIC50 on Coagulation factor X (Homo sapiens, UniProt P00742) from multiple reports.

Molecule | Operator symbol | pIC50
CN(C)C(=N)c1ccc(C(=O)Nc2ccc(Cl)cc2C(=O)Nc2ccc(Cl)cc2)cc1 | = | 9.15
COc1ccc(N/C(=N\C(=O)c2cccc(OC)c2)N[C@H]2CCCCN(CC(=O)N3CCCC3)C2=O)cc1 | = | 6.71
O=C(Nc1ccc(Cl)cc1C(=O)Nc1ccc(Cl)cn1)c1ccc(CN2CCNC2=O)cc1 | = | 7.52
CN1CCc2nc(C(=O)N3CCN(S(=O)(=O)c4ccc5cc(Cl)ccc5c4)CC3C(=O)NCC(=O)N3CCOCC3)sc2C1 (stereo not drawn) | = | 7.60
O=C(CN1CCCC[C@H](N/C(=C/[N+](=O)[O-])Nc2ccc3c(c2)CCO3)C1=O)N1CCCC1 | = | 5.82
CCOC(=O)[C@]1(C)CCC[C@@]2(C)[C@@H]3CC[C@@]4(C)C[C@]3(CC[C@@H]21)C/C4=N\NC(=S)Nc1ccc(F)cc1 | = | 4.56
CS(=O)(=O)N(Cc1ccc2ccc(C(=N)N)cc2c1)C1CCN(S(=O)(=O)c2c(Cl)cccc2Cl)CC1 | < | 4.00
N=C(c1ccc(C(=O)N2CCN(S(=O)(=O)c3cc4cc(Cl)ccc4[nH]3)CC2)cc1)N1CCCC1 | = | 7.08
CCC(NC(=O)Nc1ccc(Cl)cc1)C(=O)Nc1ccc(N2CCOCC2=O)cc1 (single isomer, unassigned) | = | 7.77
COc1cccc(C(=O)NC(=N[C@H]2CCCCN(CC(=O)N3CCCC3)C2=O)Nc2cccc(C)c2)c1 | = | 6.56
CCOC(=O)CN(C)Cc1ccc(C(=O)Nc2ccc(Cl)cc2C(=O)Nc2ccc(Cl)cn2)cc1 | = | 6.75
NS(=O)(=O)c1ccccc1-c1ccc(C(=O)Nc2ccccc2C(=O)Nc2ccc(Br)cn2)cc1 | = | 8.47
Nc1ccc(NC(=O)c2ccc(-c3ccccc3S(N)(=O)=O)cc2)c(C(=O)Nc2ccc(Cl)cn2)c1 | = | 8.17
CN1CCN=C1c1ccc(C(=O)N2CCN(S(=O)(=O)c3cc4ccc(Cl)cc4s3)CC2CC(=O)N2CCC2)cc1 (stereo not drawn) | = | 8.00
Nc1noc2c(N3CC[C@@H](NC(=O)c4ccc(-n5cnc6ncccc65)cc4Cl)C3)ncc(Cl)c12 | = | 4.60
CN1CCN(c2ccc3c(c2)OC[C@H]2[C@H](CNC(=O)c4ccc(Cl)s4)OC(=O)N32)C(=O)C1 | = | 5.66
CCOC(=O)[C@]1(C)CCC[C@@]2(C)[C@@H]3CC[C@@]4(C)C[C@]3(CC[C@@H]21)C/C4=N\N | = | 5.55
N=C(N)c1c(F)c(F)c(CNC(=O)Cn2c(-c3cccc(N)c3)c(Cl)nc(NC3CCC3)c2=O)c(F)c1F | < | 4.52
N=C(c1ccc(C(=O)N2CCN(S(=O)(=O)c3ccc4cc(Br)ccc4c3)CC2)cc1)N1CCCCC1 | = | 6.80
N=C(N)NCCC[C@H](NC(=O)CN1CCN[C@@H](Cc2ccccc2)C1=O)C(=O)c1nccs1 | = | 6.05
Cc1cc(N2CCC(N(C)C(=O)CCS(=O)(=O)c3cc4ccc(Cl)cc4s3)CC2)ccn1 | < | 5.30
CN(CC(=O)N[C@@H](CCCNC(=N)N)C(=O)c1nccs1)C(=O)CNS(=O)(=O)c1ccccc1 | = | 8.22
N=c1[nH][nH]c(=O)c2cc(CNC(=O)Cn3c(-c4cccc(N)c4)c(Cl)nc(NC4CCC4)c3=O)ccc12 | < | 4.52
Cc1cc(C(=O)Nc2ccc(-c3ccccc3S(N)(=O)=O)cn2)n(-c2cc3ccccc3cc2F)n1 | = | 7.09
N=C(N)c1ccc(CNC(=O)CN2C(=O)[C@H](NS(=O)(=O)Cc3ccccc3)CSc3ccc(-c4cccc(N)c4)cc32)cc1 | = | 5.49
CC(=N)N1CCC(Oc2ccc(N(Cc3nc4cc(C(=N)N)ccc4n3CC(=O)Nc3ccc(Cl)c(Cl)c3)C(=O)c3ccc(C(=O)O)cc3)cc2)CC1.Cl.Cl | = | 6.70
CN(C)C(=N)c1ccc(C(=O)Nc2ccc(C#N)cc2C(=O)Nc2ccc(Cl)cn2)cc1 | = | 8.92
COc1cc(-c2noc3ncn(-c4ccc(N5CCOCC5=O)cc4)c(=O)c23)ccc1OC(C)=O | = | 7.89
COc1ccc(N/C(=N\C(=O)c2ccc(OC)cc2)N[C@H]2CCCCN(CC(=O)N3CCCC3)C2=O)cc1 | = | 6.64
CN1CCc2nc(C(=O)N[C@@H]3CN(C(=O)NC(C)(C)C)CC[C@@H]3NC(=O)c3cc4cc(Cl)ccc4[nH]3)sc2C1 | = | 8.32
COc1ccc(NC(=O)c2nc3c(s2)CN(C)CC3)c(C(=O)Nc2ccc(Cl)s2)c1 | = | 5.86
CC1(C)OB(c2ccc(CCN=C(N)N)cc2)OC1(C)C.O=C(O)C(F)(F)F | = | 3.76
Cc1nccc(N2CCC(C(=O)N3CC[C@@H](CNS(=O)(=O)c4ccc(-c5ccc(Cl)s5)s4)C3)CC2)n1 | = | 7.21
